# method_notes: Microsomal stability assay, human liver microsomes;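 also: pooled human liver microsomes at 0.25 mg/mL with 1 µM compound and NADPH at 37 °C, pH 7.4, for 30 min, unchanged parent quantified by LC-MS/MS against the 0 min sample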
# conditions: human liver microsomes
Record form. Attribute: HLM. Fill in for each entry.
Give bare numbers, in µL/min/mg.

Examples with their reported HLM follow.
COCC(=O)N[C@@H](Cc1cccc(F)c1)[C@H](O)CN[C@H]1CC2(CCC2)Oc2c1cc([C@@H](O)C(C)(C)C)cc2-n1ccnc1 ... 14
CO[C@H](C)C(=O)N[C@@H](Cc1cc(F)cc(Cl)c1)[C@H](O)CN[C@H]1CC2(CCC2)Oc2cnc(CC(C)(C)F)cc21 ... 515
CNc1nc(CC(C)C)cc2c1OC1(CCC1)C[C@@H]2NC[C@@H](O)[C@H](Cc1ccc2c(c1)OCO2)NC(=O)[C@@H](C)OC ... 220
COCC(=O)N[C@@H](Cc1cc(F)cc(F)c1)[C@H](O)CN[C@H]1CC2(CCC2)Oc2c(-c3cncn3C)cc(CC(C)C)cc21 ... 36
CC(C)(C)Cc1cnc2c(c1)[C@@H](NC[C@@H](O)[C@H](Cc1ccc(F)cc1)NC(=O)[C@H]1CN(Cc3ccccc3)CCO1)CC1(CCC1)O2 ... 775

Consider the record given below.
Given item `CC(=O)N[C@@H](Cc1cccc(F)c1)[C@H](O)CN[C@H]1CC2(CCC2)Oc2c1cc(Cl)cc2-n1ccnc1` , the value recorded as its HLM is 44

###

Record form. Attribute: log10(IC50). Fill in for each entry.
# study_target: Beta Secretase enzyme (BACE) (Homo sapiens)
# Sequence (P56817 46-501): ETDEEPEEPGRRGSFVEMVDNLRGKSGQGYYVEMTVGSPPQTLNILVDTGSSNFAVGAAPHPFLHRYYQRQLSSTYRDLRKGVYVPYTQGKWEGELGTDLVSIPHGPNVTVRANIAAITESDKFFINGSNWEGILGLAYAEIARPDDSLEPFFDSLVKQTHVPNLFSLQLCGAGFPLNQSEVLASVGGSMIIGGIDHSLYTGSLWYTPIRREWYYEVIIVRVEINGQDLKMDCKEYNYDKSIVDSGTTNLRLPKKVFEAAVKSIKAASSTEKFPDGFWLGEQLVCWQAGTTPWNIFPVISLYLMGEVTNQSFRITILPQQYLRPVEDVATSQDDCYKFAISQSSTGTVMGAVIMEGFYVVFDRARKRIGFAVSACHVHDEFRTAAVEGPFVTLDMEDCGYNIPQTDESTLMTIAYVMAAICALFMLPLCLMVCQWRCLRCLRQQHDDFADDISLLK
# method_notes: In vitro enzymatic BACE FRET (fluorescence resonance energy transfer) assay;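 also: fluorescence read after 1 h with 50 nM quenched peptide substrate spanning the BACE cleavage site, in pH 4.2 acetate buffer containing 10% DMSO and nonionic detergent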
# Format: biochemical
# conditions: BACE enzyme assay IC50; read-out: BACE1 FRET assay
Please keep in mind that the values are log10 of IC50 expressed in nM.

Examples with their reported log10(IC50) follow.
CO[C@H](C)C(=O)N[C@@H](Cc1ccc2c(c1)OCO2)[C@H](O)CN[C@H]1CC2(CCC2)Oc2ncc(CC(C)(C)F)cc21 ... 2.55
CC(=O)N[C@@H](Cc1ccc(-c2cncs2)cc1)[C@H](O)CN[C@H]1CC2(CCC2)Oc2ncc(CC(C)(C)C)cc21 ... 1.87
COCC(=O)N[C@@H](Cc1cc(F)cc(-c2nccs2)c1)[C@H](O)CN[C@H]1CC2(CCC2)Oc2ncc(CC(C)C)cc21 ... 0.60
CO[C@H](C)C(=O)N[C@@H](Cc1cc(F)cc(F)c1)[C@H](O)CN[C@H]1CC2(CCC2)Oc2c1cc(CC(C)C)nc2-c1nccn1C ... 1.48
CO[C@H](C)C(=O)N[C@@H](Cc1ccc(-c2nccs2)cc1)[C@H](O)CN[C@H]1CC2(CCC2)Oc2ncc(CC(C)(C)C)cc21 ... 1.69

List reported log10(IC50) for each of these molecules:
1. CC(=O)N[C@@H](Cc1cc(F)cc(F)c1)[C@H](O)CN[C@H]1CC(C)(C)N2CCOc3cc(CC(C)(C)C)cc1c32
2. CO[C@H](C)C(=O)N[C@@H](Cc1ccc(F)c(-c2nccs2)c1)[C@H](O)CN[C@H]1CC2(CCC2)Oc2ncc(CC(C)(C)C)cc21

Output line:
1. 1.77
2. 1.04

List reported log10(IC50) for each of these molecules:
1. CNc1nc(CC(C)(C)C)cc2c1OC1(CCC1)C[C@@H]2NC[C@@H](O)[C@H](Cc1ccc(F)c(-c2nccs2)c1)NC(=O)COC
2. Cc1ccc(CN2CCO[C@@H](C(=O)N[C@@H](Cc3ccc(F)cc3)[C@H](O)CN[C@H]3CC4(CCC4)Oc4ncc(CC(C)(C)C)cc43)C2)cc1
3. COCC(=O)N[C@@H](Cc1cc(F)cc(-c2nccn2C)c1)[C@H](O)CN[C@H]1CC2(CCC2)Oc2ncc(CC(C)(C)C)cc21
4. CCc1cnc2c(c1)[C@@H](NC[C@@H](O)[C@H](Cc1cc(F)cc(-c3nccs3)c1)NC(=O)COC)CC1(CCC1)O2

Output line:
1. 1.51
2. 1.45
3. 1.71
4. 1.48
